Measurement target: KDM4B (Homo sapiens, UniProt O94953)
Sequence (O94953 1-1096): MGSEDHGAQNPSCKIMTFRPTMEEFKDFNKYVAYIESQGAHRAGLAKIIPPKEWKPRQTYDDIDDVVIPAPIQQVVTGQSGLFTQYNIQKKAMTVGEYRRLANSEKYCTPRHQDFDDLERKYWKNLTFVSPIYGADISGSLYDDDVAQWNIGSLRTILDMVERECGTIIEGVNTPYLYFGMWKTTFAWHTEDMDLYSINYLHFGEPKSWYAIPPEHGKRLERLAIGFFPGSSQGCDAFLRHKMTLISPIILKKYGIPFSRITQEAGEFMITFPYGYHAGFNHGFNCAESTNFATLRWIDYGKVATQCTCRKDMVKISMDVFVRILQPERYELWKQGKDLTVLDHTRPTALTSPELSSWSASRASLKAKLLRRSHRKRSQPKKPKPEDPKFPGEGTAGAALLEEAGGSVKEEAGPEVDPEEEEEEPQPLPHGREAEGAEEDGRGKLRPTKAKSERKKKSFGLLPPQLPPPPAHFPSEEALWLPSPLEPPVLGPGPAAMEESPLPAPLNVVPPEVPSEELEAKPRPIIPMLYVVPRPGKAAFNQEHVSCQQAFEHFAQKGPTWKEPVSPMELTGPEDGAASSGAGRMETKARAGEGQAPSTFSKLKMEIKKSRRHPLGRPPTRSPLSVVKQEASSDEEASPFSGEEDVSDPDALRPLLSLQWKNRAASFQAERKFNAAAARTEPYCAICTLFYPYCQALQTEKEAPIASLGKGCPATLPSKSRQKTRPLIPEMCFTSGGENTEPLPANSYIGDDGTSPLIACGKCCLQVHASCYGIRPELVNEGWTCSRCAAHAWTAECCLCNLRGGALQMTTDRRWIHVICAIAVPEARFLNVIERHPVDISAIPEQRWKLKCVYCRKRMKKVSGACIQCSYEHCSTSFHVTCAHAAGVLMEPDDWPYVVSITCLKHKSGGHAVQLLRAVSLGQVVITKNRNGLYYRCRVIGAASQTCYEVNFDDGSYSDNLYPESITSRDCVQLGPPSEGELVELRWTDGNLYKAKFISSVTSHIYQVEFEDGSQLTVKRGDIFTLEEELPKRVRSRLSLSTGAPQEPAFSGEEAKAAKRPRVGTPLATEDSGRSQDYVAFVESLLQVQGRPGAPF
Assay info: KDM demethylase inhibition (IC50)
Assay type: biochemical
Measurement setup: read-out: IC50, demethylase activity
Outcome measure: IC50

>>> result("CN(c1ccccc1)c1ccc2c(c1)CCC[C@H]2CNc1cnccc1C(=O)O")
"< 0.105 µM"
